The measurements presented in this section are drawn from paper PMC3231940.

# Test Summary: Apremilast in plasma by chiral LC/MS/MS, non-compartmental PK
# Assay type: in vivo, human
# Condition: male, human, plasma, po, 20 mg; single oral 20-mg dose; read-out: AUC determined via LC/MS

{"Molecule": "CCOc1cc([C@@H](CS(C)(=O)=O)N2C(=O)c3cccc(NC(C)=O)c3C2=O)ccc1OC [Apremilast]", "Reading Unit": "ng·h/mL", "AUC": 1910}

---

# Test Summary: Apremilast in plasma by chiral LC/MS/MS, non-compartmental PK
# Assay type: in vivo, human
# Condition: male, human, plasma, po, 20 mg, chiral LC/MS/MS assay; single oral 20-mg dose; mean ± SD; read-out: Plasma t½ (converted)
# Protocol: Urine was collected pre-dose, 0-4, 4-8, 8-12, 12-24 and every 24 h thereafter up to 216h (9 days) following dose administration and was stabilized with one volume of pH 1.5 Sorensen's citrate buffer (25-mM sodium citrate buffer adjusted to pH 1.5). […] Blood samples collected for radioactivity counting were stored at or below -20°C until analysed. […] All urine, faecal homogenates and plasma samples were stored at or below -20°C until analysed. […]

{"Compound Structure": "CCOc1cc([C@@H](CS(C)(=O)=O)N2C(=O)c3cccc(NC(C)=O)c3C2=O)ccc1OC", "half-life": "~420 min"}

---

# Test Summary: Metabolite profiling by HPLC radiochromatography in plasma, urine and faeces
# Format: in vivo, human
# Condition: human, plasma; radiochromatography; single oral 20-mg dose; mean ± SD; read-out: Plasma t½ (converted)

{"Compound": "CCOc1cc([C@@H](CS(C)(=O)=O)N2C(=O)c3cccc(NC(C)=O)c3C2=O)ccc1O[C@@H]1O[C@H](C(=O)O)[C@@H](O)[C@H](O)[C@H]1O [Metabolite M12, O-desmethyl apremilast glucuronide]", "half-life": "15.8 h"}
{"Compound": "CCOc1cc([C@@H](CS(C)(=O)=O)N2C(=O)c3cccc(NC(=O)COC4OC(C(=O)O)C(O)C(O)C4O)c3C2=O)ccc1OC (stereo partly drawn) [Metabolite M16]", "half-life": "11 h"}
{"Compound": "CCOc1cc([C@@H](CS(C)(=O)=O)N2C(=O)c3cccc(NC(C)=O)c3C2=O)ccc1OC", "half-life": "7.1 h"}

---

# Test Summary: Apremilast in plasma by chiral LC/MS/MS, non-compartmental PK
# Assay type: in vivo, human
# Condition: male, human, plasma; single oral dose 20 mg, 100 uCi

{"Compound Structure": "CCOc1cc([C@@H](CS(C)(=O)=O)N2C(=O)c3cccc(NC(C)=O)c3C2=O)ccc1OC", "Cmax": "333 ng/mL"}

---

# Test Summary: Apremilast in plasma by chiral LC/MS/MS, non-compartmental PK
# Format: in vivo, human
# Condition: male, human, plasma; chiral LC/MS/MS assay; single oral 20-mg dose; mean ± SD; read-out: Plasma AUC0-∞
Readout Label: AUC(0-inf) (ng·h/mL)

{"Compound Structure": "CCOc1cc([C@@H](CS(C)(=O)=O)N2C(=O)c3cccc(NC(C)=O)c3C2=O)ccc1OC", "Readout Label": "AUC(0-inf)", "Measured": 1970}

---

# System: PDE4 enzyme isolated from U937 human monocytic cells
# Test Summary: PDE4 inhibition, cAMP hydrolysis assay
# Assay type: biochemical
# Condition: PDE4 from U937 cells, cAMP hydrolysis
pIC50: −log10 of the molar value.

{"Molecule": "CCOc1cc([C@@H](CS(C)(=O)=O)NC(=O)c2cccc(NC(C)=O)c2C(=O)O)ccc1OC [M1/M2]", "Limit Qualifier": "=", "pIC50": 3.92}
{"Molecule": "COc1ccc([C@@H](CS(C)(=O)=O)N2C(=O)c3cccc(NC(C)=O)c3C2=O)cc1O [Metabolite M5, O-desethyl apremilast]", "Limit Qualifier": "=", "pIC50": 4.36}
{"Molecule": "CCOc1cc([C@@H](CS(C)(=O)=O)N2C(=O)c3cccc(NC(=O)COC4OC(C(=O)O)C(O)C(O)C4O)c3C2=O)ccc1OC (stereo partly drawn) [Metabolite M16]", "Limit Qualifier": "=", "pIC50": 5.19}
{"Molecule": "CCOc1cc([C@@H](CS(C)(=O)=O)N2C(=O)c3cccc(NC(C)=O)c3C2=O)ccc1O[C@@H]1O[C@H](C(=O)O)[C@@H](O)[C@H](O)[C@H]1O [Metabolite M12, O-desmethyl apremilast glucuronide]", "Limit Qualifier": "<", "pIC50": 4.00}
{"Molecule": "CCOc1cc([C@@H](CS(C)(=O)=O)N2C(=O)c3cccc(NC(C)=O)c3C2=O)ccc1O [Metabolite M3, O-desmethyl apremilast]", "Limit Qualifier": "=", "pIC50": 5.08}
{"Molecule": "CCOc1cc([C@@H](CS(C)(=O)=O)N2C(=O)c3cccc(NC(=O)CO)c3C2=O)ccc1OC [Metabolite M17]", "Limit Qualifier": "=", "pIC50": 7.03}
{"Molecule": "CCOc1cc([C@@H](CS(C)(=O)=O)N2C(=O)c3cccc(N)c3C2=O)ccc1OC [Metabolite M7, N-deacetyl apremilast]", "Limit Qualifier": "=", "pIC50": 6.80}
{"Molecule": "CCOc1cc([C@@H](CS(C)(=O)=O)N2C(=O)c3cccc(N)c3C2=O)ccc1OC1OC(C(=O)O)C(O)C(O)C1O (stereo partly drawn) [Metabolite M14]", "Limit Qualifier": "<", "pIC50": 4.10}
{"Molecule": "CCOc1cc([C@@H](CS(C)(=O)=O)N2C(=O)c3cccc(NC(C)=O)c3C2=O)ccc1OC [Apremilast]", "Limit Qualifier": "=", "pIC50": 7.13}

---

# Test Summary: Metabolite profiling by HPLC radiochromatography in plasma, urine and faeces
# Format: in vivo, human
# Condition: urine collected up to 48-h post-dose
Readout Label: % of dose excreted, urine

{"Compound": "CCOc1cc([C@@H](CS(C)(=O)=O)NC(=O)c2cccc(NC(C)=O)c2C(=O)O)ccc1OC1OC(C(=O)O)C(O)C(O)C1O (stereo partly shown) [Metabolite M15]", "Measured": "3.3 % of dose"}
{"Compound": "CCOc1cc([C@@H](CS(C)(=O)=O)N2C(=O)c3cccc(NC(C)=O)c3C2=O)ccc1O [Metabolite M3, O-desmethyl apremilast]", "Measured": "D"}
{"Compound": "CCOc1cc([C@@H](CS(C)(=O)=O)N2C(=O)c3cccc(N)c3C2=O)ccc1OC [Metabolite M7, N-deacetyl apremilast]", "Measured": "D"}
{"Compound": "CCOc1cc([C@@H](CS(C)(=O)=O)N2C(=O)c3cccc(NC(C)=O)c3C2=O)ccc1OC", "Measured": "2.8 % of dose"}

---

Each record here notes measured Plasma AUC0-t.
# Test Summary: Metabolite profiling by HPLC radiochromatography in plasma, urine and faeces
# Format: in vivo, human
# Condition: radiochromatography; single oral 20-mg dose; mean ± SD
Readout Label: Plasma AUC0-t

{"Compound": "CCOc1cc([C@@H](CS(C)(=O)=O)N2C(=O)c3cccc(NC(C)=O)c3C2=O)ccc1OC [Apremilast]", "Readout Label": "Plasma AUC0-t", "Measured": "2455±690 ngEq*h/mL"}
{"Compound": "CCOc1cc([C@@H](CS(C)(=O)=O)N2C(=O)c3cccc(N)c3C2=O)ccc1OC1OC(C(=O)O)C(O)C(O)C1O (some centres unmarked) [Metabolite M14]", "Readout Label": "Plasma AUC0-t", "Measured": "269±146 ngEq*h/mL"}
{"Compound": "COc1ccc([C@@H](CS(C)(=O)=O)N2C(=O)c3cccc(NC(C)=O)c3C2=O)cc1OC1OC(C(=O)O)C(O)C(O)C1O (some centres unmarked) [Metabolite M13]", "Readout Label": "Plasma AUC0-t", "Measured": "133±125 ngEq*h/mL"}
{"Compound": "CCOc1cc([C@@H](CS(C)(=O)=O)N2C(=O)c3cccc(NC(=O)COC4OC(C(=O)O)C(O)C(O)C4O)c3C2=O)ccc1OC (some centres unmarked) [Metabolite M16]", "Readout Label": "Plasma AUC0-t", "Measured": "363 ±54 ngEq*h/mL"}
{"Compound": "CCOc1cc([C@@H](CS(C)(=O)=O)N2C(=O)c3cccc(NC(C)=O)c3C2=O)ccc1O[C@@H]1O[C@H](C(=O)O)[C@@H](O)[C@H](O)[C@H]1O [Metabolite M12, O-desmethyl apremilast glucuronide]", "Readout Label": "Plasma AUC0-t", "Measured": "2124±331 ngEq*h/mL"}

---

# Test Summary: Metabolite profiling by HPLC radiochromatography in plasma, urine and faeces
# Assay type: in vivo, human
# Condition: plasma radioactivity concentrations and radiochromatography; single oral 20-mg dose; mean ± SD

{"Compound": "CCOc1cc([C@@H](CS(C)(=O)=O)N2C(=O)c3cccc(NC(C)=O)c3C2=O)ccc1O[C@@H]1O[C@H](C(=O)O)[C@@H](O)[C@H](O)[C@H]1O [Metabolite M12, O-desmethyl apremilast glucuronide]", "Plasma Cmax (ngEq/mL)": 111}
{"Compound": "COc1ccc([C@@H](CS(C)(=O)=O)N2C(=O)c3cccc(NC(C)=O)c3C2=O)cc1OC1OC(C(=O)O)C(O)C(O)C1O (some centres unmarked) [Metabolite M13]", "Plasma Cmax (ngEq/mL)": 7.5}
{"Compound": "CCOc1cc([C@@H](CS(C)(=O)=O)N2C(=O)c3cccc(N)c3C2=O)ccc1OC1OC(C(=O)O)C(O)C(O)C1O (some centres unmarked) [Metabolite M14]", "Plasma Cmax (ngEq/mL)": 9.4}
{"Compound": "CCOc1cc([C@@H](CS(C)(=O)=O)N2C(=O)c3cccc(NC(C)=O)c3C2=O)ccc1OC [Apremilast]", "Plasma Cmax (ngEq/mL)": 321}
{"Compound": "CCOc1cc([C@@H](CS(C)(=O)=O)N2C(=O)c3cccc(NC(=O)COC4OC(C(=O)O)C(O)C(O)C4O)c3C2=O)ccc1OC (some centres unmarked) [Metabolite M16]", "Plasma Cmax (ngEq/mL)": 27.6}
